The reader will find reported Percent Effect values listed item by item below.
tested on: Mycobacterium tuberculosis; experiment: Cornell - Phenotypic assay to identify agents that inhibit growth of Mycobacterium tuberculosis; type: functional; design: scale not given: direction of the effect not stated beside the values; details: 10 mM as filed; unlikely as a test dose
The campaign covered roughly 53,000 compounds. About 900 (1.7%) showed an effect of 50% or more. The entries come from a sample that favours strong results as a whole.
Write the answer as a number in %, unit excluded.

O=C(c1cnc(O)c(Cl)c1)N1CCCC(c2nccs2)C1 (stereo unspecified) :: -10.54
CC1Cc2ccccc2N1Cc1occc1C(=O)NCC(=O)N(C)C (stereo unspecified) :: 0.4209
CN(C)C(CNC(=O)c1nc(N2CCCC2)ncc1Cl)c1ccco1 (stereo unspecified) :: 22.7
Cc1nn2c(N3CCC(C(N)=O)CC3)cc(-c3ccccc3)nc2c1C :: 21.25
Cc1cc(NC(=O)c2nc(N3CCCC3)ncc2Cl)nc(C(C)C)n1 :: 24.2

# next compound below
Prompt line: # query: Percent Effect of entry CC1Cc2ccccc2N1Cc1occc1C(=O)O (stereo unspecified)
Response line: -3.286
